Reference source: patent US8778963B2

Where a name gives a salt, the structure may show the parent alone.
Metric Name: melting point

// query // lookup melting point for CCOCc1nc2c(N)nc3cccnc3c2n1CCCCN(OC)C(=O)NC(C)C
// result 146 to 147 °C

// query // lookup melting point for CC(CCCn1c(C)nc2c(N)nc3ccccc3c21)=NO
// result 264 to 266 °C

// query // lookup melting point for CCCc1nc2c(N)nc3cccnc3c2n1CCCCN(OC)C(=O)NC(C)C
// result 161 to 162 °C

// query // lookup melting point for CCCc1nc2c(N)nc3ccccc3c2n1CCCCN(OC)C(=O)Nc1ccccc1
// result 164 to 166 °C

// query // lookup melting point for CCCc1nc2c(N)nc(C)c(C)c2n1CCC/C(C)=N/OC
// result 144 to 145.5 °C

// query // lookup melting point for CCOCc1nc2c(N)nc3ccccc3c2n1CCCC(C)=NOCc1ccccc1 (as salt: hydrochloride)
// result 184 to 186 °C

// query // lookup melting point for CCCc1nc2c(N)nc3ccccc3c2n1CCCC(C)N(OC)C(C)=O (stereo not shown)
// result 140 to 142 °C

// query // lookup melting point for CCCc1nc2c(N)nc3cc(-c4ccccc4)ccc3c2n1CCCC(C)=NOC
// result 191 to 192 °C

// query // lookup melting point for CCCCc1nc2c(N)nc3ccccc3c2n1CCCC(C)=NOC
// result 157 to 159 °C

// query // lookup melting point for CCOCc1nc2c(N)nc3ccccc3c2n1CCCC(C)=NOC (as salt: hydrochloride)
// result 189 to 192 °C

// query // lookup melting point for CCCCCCC(CCCn1c(CCC)nc2c(N)nc3ccccc3c21)=NO
// result 113 to 115 °C

// query // lookup melting point for CCCc1nc2c(N)nc3ccccc3c2n1CCCCN(O)C(C)=O
// result 191 to 193 °C

// query // lookup melting point for CCCc1nc2c(N)nc3ccccc3c2n1CCCC(C)N(OC)C(=O)NCC (stereo not shown)
// result 193 to 194 °C

// query // lookup melting point for CCCCc1nc2c(N)nc3ccccc3c2n1CCCC(=NOC)c1ccccc1
// result 198 to 200 °C

// query // lookup melting point for CCCc1nc2c(N)nc(C)c(C)c2n1CCCCN(O)C(=O)c1ccccc1
// result 132 to 134 °C

// query // lookup melting point for CON=C(C)CC(C)(C)Cn1cnc2c(N)nc3ccccc3c21
// result 148 to 150 °C

// query // lookup melting point for CCCc1nc2c(N)nc3cccnc3c2n1CCCC(C)N(OC)C(C)=O (stereo not shown)
// result 158 to 159 °C

// query // lookup melting point for CCOCc1nc2c(N)nc3ccccc3c2n1CCCC(C)=NO
// result 220 to 223 °C

// query // lookup melting point for CCCc1nc2c(N)nc3cccnc3c2n1CCCCN(OC)C(C)=O
// result 155 to 156 °C
